- Method: qHTS assay to identify small molecule antagonists of the estrogen related receptor (ERR) signaling pathway from Tox21 library - cell viability counter screen (AID 1224834); note: nearly all actives have a fitted effect of over 30% in size
- Setup conditions: ERR reporter cells viability, CellTiter-Fluor, 17.5 h; series mostly up to 92.4 µM
Results filed as inconclusive are left out. Active and inactive are the calls of the source. Calls come from the whole dose curve; as a rule, active = well fitted cell-killing curve with a large enough effect in the repeat runs; inconclusive = weak or mixed curves; inactive = flat fitted curve, though single readings scatter.
Please answer using one outcome listed in active, inactive

Any idea what this test logged for `CC(C)CCCCCCCOP(=O)(Oc1ccccc1)Oc1ccccc1` ?
inactive

Any idea what this test logged for C[CH2][Hg][N]1C(=O)C2C(C1=O)C1(Cl)C(Cl)=C(Cl)C2(Cl)C1(Cl)Cl (stereo not drawn) ?
active

Any idea what this test logged for `C[C@]12CC[C@@H]3c4ccc(OC(=O)N(CCCl)CCCl)cc4CC[C@H]3[C@@H]1CC[C@@H]2O` ?
inactive

Any idea what this test logged for `c1ccc2cc3c(cc2c1)-c1cccc2cccc-3c12` ?
inactive

Any idea what this test logged for `CC(C)(C)OO` ?
inactive

Any idea what this test logged for `c1ccc(Nc2ccc3ccccc3c2)cc1` ?
inactive

Any idea what this test logged for CC1(C)C(/C=C(\Cl)C(F)(F)F)C1C(=O)OC(C#N)c1cccc(Oc2ccccc2)c1 (stereo not drawn) ?
inactive

Any idea what this test logged for `BrCBr` ?
inactive

Any idea what this test logged for `COc1ccc(N)cc1N` ?
active

Any idea what this test logged for `C[C@]12CC[C@H](O)C[C@H]1CC[C@@H]1[C@@H]2C[C@@H](O)[C@]2(C)[C@@H](C3=CC(=O)OC3)CC[C@]12O` ?
active

Any idea what this test logged for `Cc1cc(Cl)ccc1O[C@H](C)C(=O)O` ?
inactive

Any idea what this test logged for `N#Cc1ccccc1Cl` ?
inactive

Any idea what this test logged for `[Hg+2].[I-].[I-]` ?
active

Any idea what this test logged for `COP(=S)(OC)Oc1cc(Cl)c(Br)cc1Cl` ?
inactive

Any idea what this test logged for `CN(CCCC(=O)c1cccnc1)N=O` ?
inactive

Any idea what this test logged for `O=[N+]([O-])c1cc(Cl)ccc1Cl` ?
inactive

Any idea what this test logged for `CC1(C)[C@H](C(=O)O[C@H](C#N)c2cccc(Oc3ccccc3)c2)[C@@H]1/C=C(\Cl)C(F)(F)F` ?
inactive

Any idea what this test logged for `CCOCn1c(-c2ccc(Cl)cc2)c(C#N)c(Br)c1C(F)(F)F` ?
active

Any idea what this test logged for `Fc1cccc(Cl)c1CCl` ?
inactive

Any idea what this test logged for `CC(=O)[O-].[Tl+]` ?
active

Any idea what this test logged for `CCCOCC(=Nc1ccc(Cl)cc1C(F)(F)F)n1ccnc1` ?
active

Any idea what this test logged for CCCCCCCCCCCCCN1CC(C)OC(C)C1 (stereo not drawn) ?
inactive

Any idea what this test logged for `CN(C)c1ccc(N=Nc2ccccc2)cc1` ?
active

Any idea what this test logged for `CN(C)CCc1c[nH]c2ccc(O)cc12` ?
inactive

Any idea what this test logged for `N#CCCO` ?
inactive

Any idea what this test logged for `O=C(CCl)Nc1ccccc1` ?
active

Any idea what this test logged for `ClCc1ccccc1CCl` ?
inactive

Any idea what this test logged for `O=C/C(Cl)=C(/Cl)C(=O)O` ?
inactive

Any idea what this test logged for `S=C(SSC(=S)N1CCCCC1)N1CCCCC1` ?
active

Any idea what this test logged for `O=C(NC(=O)c1c(F)cccc1F)Nc1cc(Cl)c(OC(F)(F)C(F)F)c(Cl)c1` ?
inactive

Any idea what this test logged for `CCCCCCCCCCCCBr` ?
inactive

Any idea what this test logged for CCOP(=S)(OCC)OC(Cl)C(Cl)(Cl)Cl (stereo not drawn) ?
inactive

Any idea what this test logged for `FC(F)(F)c1cccc(C2=CCN(CCc3ccc4ccccc4c3)CC2)c1` ?
inactive

Any idea what this test logged for CC(Cl)CN(C)C (stereo not drawn) ?
inactive

Any idea what this test logged for CCSC(C)CC1CC(=O)C(/C(CC)=N/OC/C=C/Cl)=C(O)C1 (stereo not drawn) ?
inactive

Any idea what this test logged for `ClC1=C(Cl)[C@]2(Cl)[C@@H]3[C@@H](Cl)[C@H](Cl)C[C@@H]3[C@@]1(Cl)C2(Cl)Cl` ?
inactive

Any idea what this test logged for `Fc1ccc(Oc2ccnc3cc(Cl)cc(Cl)c23)cc1` ?
inactive

Any idea what this test logged for `COC[C@H](C)N(C(=O)CCl)c1c(C)csc1C` ?
inactive

====

- Study system: Thyrotropin receptor (Homo sapiens) (UniProt P16473)
- Sequence (P16473 whole entry, looked up): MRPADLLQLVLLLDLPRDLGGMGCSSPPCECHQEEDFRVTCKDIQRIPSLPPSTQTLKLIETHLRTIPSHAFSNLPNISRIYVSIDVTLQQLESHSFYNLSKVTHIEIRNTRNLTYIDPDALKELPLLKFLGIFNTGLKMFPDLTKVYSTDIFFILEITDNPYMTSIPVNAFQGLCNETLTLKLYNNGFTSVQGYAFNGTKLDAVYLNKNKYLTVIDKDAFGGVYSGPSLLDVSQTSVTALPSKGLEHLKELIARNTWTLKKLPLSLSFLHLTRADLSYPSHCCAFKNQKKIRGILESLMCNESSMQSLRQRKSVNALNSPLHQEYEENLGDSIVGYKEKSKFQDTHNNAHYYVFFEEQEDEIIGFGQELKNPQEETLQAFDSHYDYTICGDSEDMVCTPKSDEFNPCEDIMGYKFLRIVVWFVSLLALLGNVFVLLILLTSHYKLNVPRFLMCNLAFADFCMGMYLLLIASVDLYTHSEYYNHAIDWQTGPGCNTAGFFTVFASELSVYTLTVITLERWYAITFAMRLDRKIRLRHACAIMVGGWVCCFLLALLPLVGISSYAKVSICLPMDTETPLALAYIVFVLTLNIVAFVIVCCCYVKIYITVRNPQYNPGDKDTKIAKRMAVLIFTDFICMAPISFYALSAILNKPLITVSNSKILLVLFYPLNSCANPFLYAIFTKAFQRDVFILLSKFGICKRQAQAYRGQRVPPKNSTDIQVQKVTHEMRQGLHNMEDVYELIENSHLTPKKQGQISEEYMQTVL
- Method: qHTS assay to identify small molecule antagonists of the thyroid stimulating hormone receptor (TSHR) signaling pathway (AID 1259385); note: nearly all actives have a fitted effect of over 20% in size
- Setup conditions: TSHR-HEK293 cAMP HTRF, TSH-stimulated antagonist mode; series mostly up to 92.4 µM
Records with an inconclusive call do not appear. Calls of active or inactive are those of the source. Calls follow the shape of the full dose curve.
Please answer using one outcome listed in Y = active, N = inactive

Any idea what this test logged for `CCCN(CCC)CCc1c[nH]c2ccccc12` ?
N

Any idea what this test logged for `CCOP(=S)(OCC)SCS(=O)(=O)CC` ?
N

Any idea what this test logged for `CC(C)OC(=O)C(O)(c1ccc(Cl)cc1)c1ccc(Cl)cc1` ?
N

Any idea what this test logged for `CCCCCCCCCCCCCCCC[N+](C)(C)C` ?
N

Any idea what this test logged for `CCS(=O)(=O)c1cccnc1S(=O)(=O)NC(=O)Nc1nc(OC)cc(OC)n1` ?
N

Any idea what this test logged for `Clc1ccc(CO/N=C(\Cn2ccnc2)c2ccc(Cl)cc2Cl)c(Cl)c1` ?
Y

Any idea what this test logged for `CCOP(=S)(OCC)SCS(=O)(=O)C(C)(C)C` ?
N

Any idea what this test logged for `NNC(=O)c1ccccc1` ?
N

Any idea what this test logged for `Nc1ccc(Cc2ccc(N)c(Cl)c2)cc1Cl` ?
N

Any idea what this test logged for `CC(C)OC(=S)S` ?
N

Any idea what this test logged for `O=c1[nH]c2ccccc2n1CCCN1CCC(n2c(=O)[nH]c3cc(Cl)ccc32)CC1` ?
Y

Any idea what this test logged for O=c1c(C2CC(c3ccc(-c4ccc(Br)cc4)cc3)Cc3ccccc32)c(O)sc2ccccc12 (centres undefined) ?
N

Any idea what this test logged for `O=[N+]([O-])c1cc([N+](=O)[O-])c2ccccc2c1` ?
N

Any idea what this test logged for `Nc1ccc([N+](=O)[O-])cc1Cl` ?
N

Any idea what this test logged for `CCc1ccccc1C` ?
N

Any idea what this test logged for `CCOC(=O)C1(c2ccccc2)CCN(CCC(C#N)(c2ccccc2)c2ccccc2)CC1` ?
N

Any idea what this test logged for C[CH2][Hg][N]1C(=O)C2C(C1=O)C1(Cl)C(Cl)=C(Cl)C2(Cl)C1(Cl)Cl (centres undefined) ?
Y

Any idea what this test logged for `c1ccc2cc3c(cc2c1)-c1cccc2cccc-3c12` ?
N

Any idea what this test logged for `O=[N+]([O-])c1cc(Cl)ccc1Cl` ?
N

====

- Method: qHTS assay to identify small molecule agonists of the constitutive androstane receptor (CAR) signaling pathway - cell viability counter screen (AID 1224836); note: nearly all actives have a fitted effect of over 45% in size
- Setup conditions: HepG2-CYP2B6-hCAR viability, CellTiter-Fluor, 23 h, PK11195 added to every well; series mostly up to 92.4 µM
Results filed as inconclusive are left out. Active and inactive are the calls of the source. Calls come from the whole dose curve; as a rule, active = well fitted cell-killing curve with a large enough effect in the repeat runs; inconclusive = weak or mixed curves, or effect the other way; inactive = flat fitted curve, though single readings scatter.
Please answer using one outcome listed in active, inactive

Any idea what this test logged for `ClCc1ccc(Cl)cc1Cl` ?
inactive

Any idea what this test logged for `COc1ccc(/C(=C/C(=O)N2CCOCC2)c2ccc(Cl)cc2)cc1OC` ?
inactive

Any idea what this test logged for `CC(C)C(=O)Cl` ?
inactive

Any idea what this test logged for `C[C@]12Cc3nonc3C[C@@H]1CC[C@@H]1[C@@H]2CC[C@@]2(C)[C@H]1CC[C@]2(C)O` ?
inactive

Any idea what this test logged for `CC(C)OC(=O)C(O)(c1ccc(Cl)cc1)c1ccc(Cl)cc1` ?
inactive

Any idea what this test logged for CC1CCC(C(C)C)C(OC(=O)c2ccccc2N)C1 (stereo not drawn) ?
inactive

Any idea what this test logged for CC(Cc1ccc(C(C)(C)C)cc1)CN1C[C@@H](C)O[C@@H](C)C1 (stereo partly drawn) ?
inactive

Any idea what this test logged for CC(C)(C)C(O)/C(=C\c1ccc(Cl)cc1Cl)n1cncn1 (stereo not drawn) ?
active

====

- Study system: Cytochrome P450 1A2 (Homo sapiens) (UniProt P05177)
- Sequence (P05177 whole entry, looked up): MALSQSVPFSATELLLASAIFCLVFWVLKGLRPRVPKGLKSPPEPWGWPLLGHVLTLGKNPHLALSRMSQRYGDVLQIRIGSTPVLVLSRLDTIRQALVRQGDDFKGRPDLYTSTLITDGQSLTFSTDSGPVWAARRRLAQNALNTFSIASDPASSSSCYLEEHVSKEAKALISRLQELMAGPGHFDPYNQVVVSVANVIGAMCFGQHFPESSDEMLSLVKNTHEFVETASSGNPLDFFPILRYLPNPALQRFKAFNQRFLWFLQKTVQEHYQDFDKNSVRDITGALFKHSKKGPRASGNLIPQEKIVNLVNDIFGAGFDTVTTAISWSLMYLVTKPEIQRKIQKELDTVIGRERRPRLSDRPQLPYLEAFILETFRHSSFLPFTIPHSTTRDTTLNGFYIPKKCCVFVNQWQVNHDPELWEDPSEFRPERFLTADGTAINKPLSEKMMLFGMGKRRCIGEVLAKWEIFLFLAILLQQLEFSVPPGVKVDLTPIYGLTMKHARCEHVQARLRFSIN
- Method: Cytochrome P450 Family 1 Subfamily A Member 2 (CYP1A2) small molecule antagonists: luciferase reporter qHTS assay (AID 1671199); note: nearly all actives have a fitted effect of over 50% in size
- Setup conditions: P450-Glo CYP1A2 enzyme, luciferin luminescence, 1 h; series mostly up to 115 µM
Inconclusive results are not listed. Activity calls are given as the source filed them. Calls follow the shape of the dose curve; as a rule, active = well fitted inhibition curve with a large enough effect in the repeat runs; inconclusive = weak or mixed curves; inactive = no such curve, though single readings can be large or run the other way.
Please answer using one outcome listed in yes (1) for active, no (0) for inactive

Any idea what this test logged for `Oc1ccccc1Br` ?
no (0)

Any idea what this test logged for `O=[N+]([O-])c1cc(C(F)(F)F)c(Cl)c([N+](=O)[O-])c1Cl` ?
yes (1)

Any idea what this test logged for `CC(=O)Nc1ccc2c(c1)Cc1ccccc1-2` ?
yes (1)

Any idea what this test logged for CC(Cc1ccc(C(C)(C)C)cc1)CN1C[C@@H](C)O[C@@H](C)C1 (stereo partly specified) ?
yes (1)

Any idea what this test logged for `ClC1=C(Cl)[C@]2(Cl)[C@H]3[C@H]([C@H]4C=C[C@H]3C4)[C@@]1(Cl)C2(Cl)Cl` ?
no (0)

Any idea what this test logged for `COP(=O)(OC)SCn1c(=O)oc2cc(Cl)cnc21` ?
yes (1)

Any idea what this test logged for `O=[N+]([O-])c1ccc(Oc2ccc(C(F)(F)F)cc2[N+](=O)[O-])cc1` ?
yes (1)

Any idea what this test logged for `C[C@]12Cc3nonc3C[C@@H]1CC[C@@H]1[C@@H]2CC[C@@]2(C)[C@H]1CC[C@]2(C)O` ?
no (0)

Any idea what this test logged for `CC(C)(c1ccc(O)c(-c2ccccc2)c1)c1ccc(O)c(-c2ccccc2)c1` ?
yes (1)

Any idea what this test logged for `CCCN(CCC)c1c([N+](=O)[O-])cc(S(N)(=O)=O)cc1[N+](=O)[O-]` ?
yes (1)

Any idea what this test logged for `CCCCCCCCCC[N+](C)(C)CCCCCCCCCC` ?
yes (1)

Any idea what this test logged for `Cc1cccc(OP(=O)(Oc2cccc(C)c2)Oc2cccc(C)c2)c1` ?
yes (1)

Any idea what this test logged for `S=C=Nc1cccc2ccccc12` ?
yes (1)

Any idea what this test logged for `NNC(=O)c1ccccc1` ?
yes (1)

Any idea what this test logged for `CCc1cc(C)cc(CC)c1-c1c(OC(=O)C(C)(C)C)n2n(c1=O)CCOCC2` ?
no (0)

Any idea what this test logged for `c1ccc2c(c1)[nH]c1cnccc12` ?
yes (1)

Any idea what this test logged for `CCN(CC)C(=S)[S-].CCN(CC)C(=S)[S-].[Zn+2]` ?
no (0)

Any idea what this test logged for `COP(=O)(CCC(=O)NCO)OC` ?
no (0)

Any idea what this test logged for CCCCCCCCCCCCCN1CC(C)OC(C)C1 (stereo unspecified) ?
no (0)

Any idea what this test logged for `Oc1cccc(-c2ccccc2)c1` ?
yes (1)

Any idea what this test logged for CCOC(=O)OC1=C(c2cc(C)ccc2C)C(=O)NC12CCC(OC)CC2 (stereo unspecified) ?
yes (1)

Any idea what this test logged for `Fc1cccc(Cl)c1CCl` ?
yes (1)

Any idea what this test logged for `COS(=O)(=O)c1ccc(C)cc1` ?
no (0)

Any idea what this test logged for `CC[C@H](C)[C@H]1O[C@]2(C=C[C@@H]1C)C[C@@H]1C[C@@H](C/C=C(\C)[C@@H](O[C@H]3C[C@H](OC)[C@@H](O[C@H]4C[C@H](OC)[C@@H](O)[C@H](C)O4)[C@H](C)O3)[C@@H](C)/C=C/C=C3\CO[C@@H]4[C@H](O)C(C)=C[C@@H](C(=O)O1)[C@]34O)O2` ?
yes (1)

Any idea what this test logged for `CC(=O)OC1(c2ccccc2)CCN(CCc2ccccc2)CC1` ?
no (0)

Any idea what this test logged for `O=[N+]([O-])c1ccc2ccc3cccc4ccc1c2c34` ?
yes (1)

Any idea what this test logged for CC(C)C1CCC(Cc2ccc(Cl)cc2)C1(O)Cn1cncn1 (stereo unspecified) ?
yes (1)

Any idea what this test logged for `COc1ccc(OC)c(C=O)c1` ?
yes (1)

Any idea what this test logged for `CC(=[OH+])/C=C(/C)[O-].CC(=[OH+])/C=C(\C)[O-].CC(=[OH+])/C=C(\C)[O-].[Al]` ?
no (0)

Any idea what this test logged for `CCCOCC(=Nc1ccc(Cl)cc1C(F)(F)F)n1ccnc1` ?
yes (1)

Any idea what this test logged for `ClC1=C(Cl)[C@]2(Cl)[C@@H]3[C@@H](Cl)[C@@H](Cl)C[C@@H]3[C@@]1(Cl)C2(Cl)Cl` ?
no (0)
